# Assay Notes: Cytotoxicity against African green monkey Vero E6 cells assessed as cell viability at 50 uM relative to control
# Assay type: cell-based, Vero C1008
# Condition Summary: chlorocebus sabaeus, read-out: Activity
Measured Attribute: viability at 50 µM

Dear colleague, I am looking for the recorded viability at 50 µM of the following compound: CN(C(=S)NN=C(c1ccccn1)c1ccccn1)C1CCCCC1
> 70%

* * *

Can you tell me MIC for the items I'm about to list?
# System: Escherichia coli
# Assay Notes: Antibacterial activity against Escherichia coli 24 assessed as reduction in bacterial growth incubated for 24 hrs by broth microdilution method
# Type: functional
// return numeric value only (unit: mg/mL, not printed)

Which MIC value belongs to Cc1nnc(SCC2=C(C(=O)O)N3C(=O)[C@@H](NC(=O)Cn4cnnn4)[C@H]3SC2)s1 [CEFAZOLIN] ?
4.1

Any idea what its MIC is? The compound is CO/N=C(\C(=O)N[C@@H]1C(=O)N2C(C(=O)O)=C(CSc3nc(=O)c(O)nn3C)CS[C@H]12)c1csc(N)n1 [CEFTRIAXONE]
16

Request the reported MIC associated with CC1(C)S[C@@H]2[C@H](NC(=O)[C@H](N)c3ccccc3)C(=O)N2[C@H]1C(=O)O [AMPICILLIN]
16

MIC for C[C@@H](O)[C@H]1C(=O)N2C(C(=O)O)=C(S[C@@H]3CN[C@H](C(=O)N(C)C)C3)[C@H](C)[C@H]12 [MEROPENEM] ?
0.128

Request the reported MIC associated with CO/N=C(\C(=O)N[C@@H]1C(=O)N2C(C(=O)O)=C(COC(C)=O)CS[C@H]12)c1csc(N)n1 [CEFOTAXIME]
16

Endpoint output: MIC of CN(C(=S)NN=C(c1ccccn1)c1ccccn1)C1CCCCC1 . Value?
0.016
